- TARGET_DESC: T1, ECF22_4450
- T1 chain: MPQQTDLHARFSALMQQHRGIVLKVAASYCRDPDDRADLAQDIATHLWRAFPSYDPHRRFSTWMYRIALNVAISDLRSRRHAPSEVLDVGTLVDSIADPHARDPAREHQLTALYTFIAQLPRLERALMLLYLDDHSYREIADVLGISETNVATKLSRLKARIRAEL
Measured fold repression by item

**Q:** Tell me measured fold repression for AS35_3582 (protein) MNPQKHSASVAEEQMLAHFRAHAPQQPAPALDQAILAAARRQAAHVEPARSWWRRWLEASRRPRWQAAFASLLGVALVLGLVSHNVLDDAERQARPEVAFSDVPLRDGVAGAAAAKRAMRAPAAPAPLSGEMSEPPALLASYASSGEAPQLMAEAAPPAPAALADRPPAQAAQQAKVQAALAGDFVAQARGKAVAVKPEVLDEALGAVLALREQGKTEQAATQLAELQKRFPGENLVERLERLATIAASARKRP please.
**A:** 8.03

**Q:** Could you please provide reported fold repression for AS15_524 (protein) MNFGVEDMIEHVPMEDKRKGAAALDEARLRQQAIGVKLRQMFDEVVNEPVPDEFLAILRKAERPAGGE ? Thanks!
**A:** 11.1
